test system: PPARg:RXRa DBDmut IVT, anti-RXR (DBD mutation: RXRa K156A/R161A, NR concentration 270 nM, RXRa partner concentration 90 nM); experiment: PBM binding z-score (relative to random genomic background probes); higher = stronger binding; sequences stand for … in GC…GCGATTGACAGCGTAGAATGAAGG
Param threshold (2) applies to PBM binding z-score; output t when value >= threshold, f when value < threshold.

Use these answered entries as a reference point.
INSERT INTO results (monomer_sequence, qualitative_label) VALUES
  ('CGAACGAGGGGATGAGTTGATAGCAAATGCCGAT', 'f'),
  ('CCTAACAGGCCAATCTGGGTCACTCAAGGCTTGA', 't'),
  ('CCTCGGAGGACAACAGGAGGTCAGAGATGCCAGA', 'f'),
  ('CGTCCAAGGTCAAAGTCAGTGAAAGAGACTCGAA', 't'),
  ('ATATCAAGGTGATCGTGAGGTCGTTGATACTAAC', 'f');

Asked: Please indicate if the recorded PBM binding z-score for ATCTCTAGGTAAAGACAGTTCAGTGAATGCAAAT meets or exceeds 2.
Given back: t

Asked: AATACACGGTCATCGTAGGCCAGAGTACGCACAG ?
Given back: f

Asked: Another sequence to look at: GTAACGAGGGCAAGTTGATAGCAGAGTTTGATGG
Given back: t

Asked: Another: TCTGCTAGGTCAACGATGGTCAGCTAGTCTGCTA
Given back: t

Asked: Likewise for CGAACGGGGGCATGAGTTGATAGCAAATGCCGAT ?
Given back: t

Asked: Param item: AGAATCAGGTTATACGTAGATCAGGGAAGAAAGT
Given back: t

====

# PBM binding z-score annotations
test system: RARb homodimer (NR concentration 270 nM); test: PBM binding z-score (relative to random genomic background probes); higher = stronger binding; sequences stand for … in GC…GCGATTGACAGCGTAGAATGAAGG
Just the number.

# annotated cases, reported PBM binding z-score shown
INSERT INTO assay_data (monomer_sequence, observed_value) VALUES
  ('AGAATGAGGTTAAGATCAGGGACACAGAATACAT', 1.6),
  ('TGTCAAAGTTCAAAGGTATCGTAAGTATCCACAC', 3.71),
  ('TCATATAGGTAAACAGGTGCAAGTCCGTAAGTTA', 0.278);

Asked: Would you mind telling me what PBM binding z-score value was observed for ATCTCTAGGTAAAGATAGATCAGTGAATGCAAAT ?
Given back: -0.493

Asked: Next record, please: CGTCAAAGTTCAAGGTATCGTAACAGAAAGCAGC
Given back: 3.49

Asked: Note, next up: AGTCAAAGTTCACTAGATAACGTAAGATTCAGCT
Given back: 3.55

====

test system: PPARg:RXRa 90nM:30nM, anti-RXR (NR concentration 90 nM, RXRa partner concentration 30 nM); assay: PBM binding z-score (relative to random genomic background probes); higher = stronger binding; sequences stand for … in GC…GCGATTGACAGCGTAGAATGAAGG
MEASUREMENT_KIND: PBM binding z-score
Form rule: numeric answer, no unit written next to it.

Worked examples follow.
INSERT INTO assay_data (monomer_sequence, observed_value) VALUES
  ('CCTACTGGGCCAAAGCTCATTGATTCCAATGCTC', 3.85),
  ('GCTGCTAGGTCAGGTTGGTCATCTAACGGGTACG', 0.295),
  ('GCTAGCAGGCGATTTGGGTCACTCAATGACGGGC', 0.427),
  ('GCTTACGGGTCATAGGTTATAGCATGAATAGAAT', 8.53),
  ('ATCGATAGGTCGAAGGTGAGTATACCCACCCGAA', 5.43);

Now look at this entry.
Asked: Which PBM binding z-score is reported with PPARg:RXRa 90nM:30nM, anti-RXR (NR concentration 90 nM, RXRa partner concentration 30 nM) for this entry: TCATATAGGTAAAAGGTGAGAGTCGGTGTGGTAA ?
Given back: 10

====

system: FXR:RXRa (NR concentration 270 nM, RXRa partner concentration 90 nM); assay: PBM binding z-score (relative to random genomic background probes); higher = stronger binding; sequences stand for … in GC…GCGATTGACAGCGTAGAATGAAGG
Think of 2 as a floor: if PBM binding z-score stands on it or above, it is yes; beneath it, no.

INSERT INTO measurements (monomer_sequence, system_under_test, qualitative_label) VALUES
  ('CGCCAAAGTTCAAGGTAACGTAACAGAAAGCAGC', 'FXR:RXRa (NR concentration 270 nM, RXRa partner concentration 90 nM)', 'yes'),
  ('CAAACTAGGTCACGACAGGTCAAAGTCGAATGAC', 'FXR:RXRa (NR concentration 270 nM, RXRa partner concentration 90 nM)', 'yes'),
  ('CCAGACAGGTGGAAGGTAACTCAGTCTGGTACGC', 'FXR:RXRa (NR concentration 270 nM, RXRa partner concentration 90 nM)', 'no'),
  ('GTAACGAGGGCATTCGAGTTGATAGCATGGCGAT', 'FXR:RXRa (NR concentration 270 nM, RXRa partner concentration 90 nM)', 'no'),
  ('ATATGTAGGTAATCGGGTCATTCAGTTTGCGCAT', 'FXR:RXRa (NR concentration 270 nM, RXRa partner concentration 90 nM)', 'no'),
  ('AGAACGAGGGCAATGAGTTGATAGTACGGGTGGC', 'FXR:RXRa (NR concentration 270 nM, RXRa partner concentration 90 nM)', 'no'),
  ('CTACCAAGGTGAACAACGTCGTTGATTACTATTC', 'FXR:RXRa (NR concentration 270 nM, RXRa partner concentration 90 nM)', 'no'),
  ('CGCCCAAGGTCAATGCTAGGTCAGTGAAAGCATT', 'FXR:RXRa (NR concentration 270 nM, RXRa partner concentration 90 nM)', 'yes'),
  ('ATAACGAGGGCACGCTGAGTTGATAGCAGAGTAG', 'FXR:RXRa (NR concentration 270 nM, RXRa partner concentration 90 nM)', 'no'),
  ('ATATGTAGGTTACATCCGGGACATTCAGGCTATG', 'FXR:RXRa (NR concentration 270 nM, RXRa partner concentration 90 nM)', 'no');

Asked: Check if PBM binding z-score >= 2 (inclusive). Item: ATCTCTAGGTAACCAAGTTCCGTGAATGCCGAAC
Given back: no

====

Catalogue of PBM binding z-score readings, one per entry.
tested on: RARb:RXRa (NR concentration 270 nM, RXRa partner concentration 90 nM); assay: PBM binding z-score (relative to random genomic background probes); higher = stronger binding; sequences stand for … in GC…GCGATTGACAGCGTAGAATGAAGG

Consider the reported PBM binding z-score for these sequences:
INSERT INTO assay_data (monomer_sequence, measurement_kind, observed_value) VALUES
  ('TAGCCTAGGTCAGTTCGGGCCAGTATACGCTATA', 'PBM binding z-score', 2.92),
  ('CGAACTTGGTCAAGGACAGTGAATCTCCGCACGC', 'PBM binding z-score', 1.34),
  ('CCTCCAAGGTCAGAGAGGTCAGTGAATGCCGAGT', 'PBM binding z-score', 5.18);

Asked: Param readout = PBM binding z-score; param system = RARb:RXRa (NR concentration 270 nM, RXRa partner concentration 90 nM); param query = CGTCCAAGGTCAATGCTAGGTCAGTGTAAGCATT ; response: value
Given back: 5.13

Asked: How about this sequence: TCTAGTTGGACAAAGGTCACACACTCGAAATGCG
Given back: 5.11

Asked: Try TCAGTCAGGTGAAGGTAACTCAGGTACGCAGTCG next.
Given back: 1.52

====

Listing: PBM binding z-score of selected sequences
system: RXRa DBDmut IVT, anti-RXR (DBD mutation: RXRa K156A/R161A, NR concentration 90 nM); assay: PBM binding z-score (relative to random genomic background probes); higher = stronger binding; sequences stand for … in GC…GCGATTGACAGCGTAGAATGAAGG
Lab note: write the figure by itself, no unit.

Consider the worked cases shown below.
INSERT INTO results (monomer_sequence, measurement_kind, observed_value) VALUES
  ('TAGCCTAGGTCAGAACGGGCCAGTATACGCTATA', 'PBM binding z-score', -0.315),
  ('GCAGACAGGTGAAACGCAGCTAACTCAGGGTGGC', 'PBM binding z-score', -0.543),
  ('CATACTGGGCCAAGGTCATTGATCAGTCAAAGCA', 'PBM binding z-score', 1.62),
  ('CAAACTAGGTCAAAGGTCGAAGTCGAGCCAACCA', 'PBM binding z-score', 2.51),
  ('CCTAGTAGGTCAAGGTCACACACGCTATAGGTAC', 'PBM binding z-score', 2.82),
  ('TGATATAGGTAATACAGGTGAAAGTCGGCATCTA', 'PBM binding z-score', -0.27);

Asked: Give the measured PBM binding z-score of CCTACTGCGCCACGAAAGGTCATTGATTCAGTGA .
Given back: 1.51

Asked: Next entry: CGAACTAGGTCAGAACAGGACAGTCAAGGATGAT
Given back: 0.873
